system: CDK7/cyclinH/MAT1 trimeric complex (Homo sapiens, UniProt P50613)
Sequence (P50613 whole entry): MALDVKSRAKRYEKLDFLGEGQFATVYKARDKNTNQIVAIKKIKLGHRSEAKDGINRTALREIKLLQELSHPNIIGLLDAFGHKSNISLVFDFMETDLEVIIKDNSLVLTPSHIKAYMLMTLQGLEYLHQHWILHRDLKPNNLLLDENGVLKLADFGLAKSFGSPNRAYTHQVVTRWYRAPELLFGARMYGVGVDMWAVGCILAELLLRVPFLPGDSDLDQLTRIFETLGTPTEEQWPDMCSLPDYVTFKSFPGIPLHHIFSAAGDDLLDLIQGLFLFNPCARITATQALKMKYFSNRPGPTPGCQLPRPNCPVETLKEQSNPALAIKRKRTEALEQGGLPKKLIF
Sequence (P51946 whole entry partner): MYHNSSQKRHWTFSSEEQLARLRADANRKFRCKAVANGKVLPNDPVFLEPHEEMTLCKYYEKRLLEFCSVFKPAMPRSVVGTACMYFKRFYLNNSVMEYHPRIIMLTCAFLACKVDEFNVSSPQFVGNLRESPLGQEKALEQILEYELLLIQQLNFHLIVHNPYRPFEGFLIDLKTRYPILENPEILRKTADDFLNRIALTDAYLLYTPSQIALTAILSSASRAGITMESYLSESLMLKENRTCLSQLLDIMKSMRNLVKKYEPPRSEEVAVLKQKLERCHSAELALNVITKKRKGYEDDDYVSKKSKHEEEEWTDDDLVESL
Sequence (P51948 whole entry partner): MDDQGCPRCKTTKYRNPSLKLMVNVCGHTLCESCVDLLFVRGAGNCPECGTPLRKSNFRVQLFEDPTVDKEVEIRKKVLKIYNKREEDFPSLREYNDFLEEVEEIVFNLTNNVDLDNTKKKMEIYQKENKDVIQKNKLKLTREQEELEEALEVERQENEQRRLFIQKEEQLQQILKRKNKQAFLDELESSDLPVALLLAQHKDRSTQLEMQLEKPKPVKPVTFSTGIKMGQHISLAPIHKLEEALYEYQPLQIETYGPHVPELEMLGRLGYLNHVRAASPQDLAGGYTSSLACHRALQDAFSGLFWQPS
method: In vitro CDK7 assay, potency of irreversible covalent inhibitors (kinact/KI), coupled PK/LDH ADP readout at 340 nm
condition-parameters: read-out: CDK7 (20 nM enz.) (kinact/KI, M^−1*s^−1), 20 nM enzyme
endpoint-name: kinact/KI (M⁻¹ s⁻¹)
Hi! Could you send only the number? It should be in M⁻¹ s⁻¹, unit omitted.

Answer with reported kinact/KI of C=CC(=O)N1CC(N2CCC(c3cc(C#N)c4c(c3)Nc3nccc(N5CCOCC5)c3[C@H](C)O4)CC2)C1 (single isomer, unassigned)
29.2

Answer with reported kinact/KI of "C=CC(=O)N1CC(N2CCC(c3cc4c(c(C#N)n3)OCc3c(-c5cnn(C)c5)ccnc3N4)CC2)C1"
2870

Answer with reported kinact/KI of C=CC(=O)N1CC[C@@H](N2CCC(c3ccc4c(c3)Nc3ncc(F)c(N5CCOCC5)c3CO4)CC2)C1 (single isomer, unassigned)
480

Answer with reported kinact/KI of "C=CC(=O)N1CC(N2CCC(c3cc4c(c(C(N)=O)c3)OCc3c(C5CCOCC5)ccnc3N4)CC2)C1"
377

Answer with reported kinact/KI of C=CC(=O)N1CC[C@@H](N2CC(c3cc(C)c4c(c3)Nc3nccc(-c5cnn(C)c5)c3CO4)C2)C1 (single isomer, unassigned) [Compound 362]
2030

Answer with reported kinact/KI of "C=CC(=O)N1CC(N2CCC(c3ccc4c(c3)Nc3ncc(Cl)c(N5CCS(=O)(=O)CC5)c3CO4)CC2)C1"
502

Answer with reported kinact/KI of "C=C(C(=O)N1CCC(N2CC(c3cc4c(c(C)n3)OCc3c(-c5cnn(C)c5)ccnc3N4)C2)CC1)n1cccn1"
578

Answer with reported kinact/KI of C=CC(=O)N1CC[C@H](N2CC(c3cc4c(c(C5CC5)n3)OCc3c(-c5cnn(C)c5)ccnc3N4)C2)C1 (single isomer, unassigned)
622

Answer with reported kinact/KI of CC#CC(=O)N1CC(N2CC(c3cc(C#N)c4c(c3)Nc3nccc(C5CCOCC5)c3[C@H](C)O4)C2)C1 (single isomer, unassigned)
1.32

---

system: CDK7/cyclinH/MAT1 trimeric complex (Homo sapiens, UniProt P50613)
method: In vitro CDK7 assay, potency of irreversible covalent inhibitors (kinact/KI), coupled PK/LDH ADP readout at 340 nm
condition-parameters: read-out: CDK7 (20 nM enz.) (kinact, s^−1), 20 nM enzyme
Can you tell me kinact for the items I'm about to list?
Hi! Could you send only the number? It should be in s⁻¹, unit omitted.

Answer with reported kinact of "C=CC(=O)N1CCC(N2CC(c3cc(F)c4c(c3)Nc3nccc(-c5cnn(C)c5)c3CO4)C2)CC1"
4.56e-05

Answer with reported kinact of "C=CC(=O)N1CC(N2CCC(c3cc4c(c(C)n3)OCc3c(C5CCOCC5)ccnc3N4)CC2)C1"
4.84e-05

Answer with reported kinact of "C=CC(=O)N1CC(c2nc(C)c(-c3cc(C)c4c(c3)Nc3nccc(C5CCOCC5)c3CO4)c(C)n2)C1"
5.48e-05

---

system: CDK7/cyclinH/MAT1 trimeric complex (Homo sapiens, UniProt P50613)
method: In vitro CDK7 assay, potency of irreversible covalent inhibitors (kinact/KI), coupled PK/LDH ADP readout at 340 nm
condition-parameters: read-out: CDK7 (20 nM enz.) (kinact/KI, M^−1*s^−1), 20 nM enzyme
endpoint-name: log10 of kinact/KI (log10 of the value in M⁻¹ s⁻¹)
Please interpret these as log10 of kinact/KI where kinact/KI is in M⁻¹ s⁻¹.

Answer with reported log10 of kinact/KI of "C=CC(=O)N1CC(N2CC(c3ccc4c(c3)Nc3nccc(-c5cnn(C)c5)c3CO4)C2)C1"
3.16

Answer with reported log10 of kinact/KI of C#CCCN(C)C/C=C/C(=O)N1CC(N2CCC(c3ccc4c(c3)Nc3nccc(N5CCOCC5)c3C(C)O4)CC2)C1 (racemic) [Compound 143]
3.24

Answer with reported log10 of kinact/KI of CC#CC(=O)N1CC[C@@H](N2CC(c3cc(C)c4c(c3)Nc3nccc(N5CCOCC5)c3[C@H](C)O4)C2)C1 (single isomer, unassigned)
1.24

Answer with reported log10 of kinact/KI of CC#CC(=O)N1CCC(N2CC(c3cc4c(c(C#N)n3)O[C@H](C)c3c(C5CCOCC5)ccnc3N4)C2)CC1 (single isomer, unassigned)
1.16

Answer with reported log10 of kinact/KI of "C=CC(=O)N1CCC(N2CCN(c3ccc4c(c3)Nc3nccc(N5CCOCC5)c3CO4)CC2)CC1"
1.16

Answer with reported log10 of kinact/KI of C=CC(=O)N1CC[C@H](N2CC(c3cc4c(c(C)n3)O[C@@H](C)c3c(N5CCOCC5)ccnc3N4)C2)C1 (single isomer, unassigned)
0.56

Answer with reported log10 of kinact/KI of "CC#CC(=O)N1CCC(N2CC(c3cc4c(c(C#N)n3)OCc3c(N5CCOCC5)ccnc3N4)C2)CC1"
2.76

Answer with reported log10 of kinact/KI of C=CC(=O)N1CC[C@H](N2CC(c3cc4c(c(C)n3)OCc3c(C5CCOCC5)ccnc3N4)C2)[C@H](F)C1 (mixture of isomers)
2.56

Answer with reported log10 of kinact/KI of "C=CC(=O)N1CC(n2cc(-c3cc4c(c(C)n3)OCc3c(N5CCOCC5)ccnc3N4)cn2)C1"
3.04

Answer with reported log10 of kinact/KI of C=CC(=O)N1CC(N2CCC(c3cc(C#N)c4c(c3)Nc3nccc(N5CCOCC5)c3C(C)O4)CC2)C1 (stereo not drawn)
3.00

Answer with reported log10 of kinact/KI of CC#CC(=O)N1CC[C@H](N2CC(c3cc(C)c4c(c3)Nc3nccc(N5CCOCC5)c3[C@H](C)O4)C2)C1 (single isomer, unassigned)
1.78

Answer with reported log10 of kinact/KI of "C=CC(=O)N1CCC(N2CC(c3cc4c(c(CCC)n3)OCc3c(N5CCOCC5)ccnc3N4)C2)CC1"
3.04

Answer with reported log10 of kinact/KI of C=CC(=O)N1CC[C@@H](N2CC(c3cc4c(c(C)n3)O[C@@H](C)c3c(-c5cnn(C)c5)ccnc3N4)C2)C1 (single isomer, unassigned)
0.76

Answer with reported log10 of kinact/KI of C=CC(=O)N1CCC(N2CC(c3cc4c(c(C#N)n3)O[C@@H](C)c3c(N5CCOCC5)ccnc3N4)C2)CC1 (single isomer, unassigned)
1.79

Answer with reported log10 of kinact/KI of "C=CC(=O)N1CCN(C2CCN(c3cc4c(c(C)n3)OCc3c(N5CCOCC5)ccnc3N4)CC2)CC1"
3.04
